# procedure summary: The drug is tested on Providencia rettgeri strain: DSM1131 for biotransformation. The drug concentrations were measured before and after a 12-h incubation by liquid-chromatography-coupled mass spectrometry (LC–MS)
# Type: ADME
# Set-up: dose 2 uM, timepoint 0 vs 12 hours
# test parameters: 2 µM

compound: CC1Cc2ccccc2N1NC(=O)c1ccc(Cl)c(S(N)(=O)=O)c1 (stereo not drawn) [INDAPAMIDE]
Bacterial Biotransformation: Compound NOT metabolized

compound: CCS(=O)(=O)CCn1c([N+](=O)[O-])cnc1C
Bacterial Biotransformation: Compound NOT metabolized

compound: CC(C)(C(=O)O)c1ccc(C(O)CCCN2CCC(C(O)(c3ccccc3)c3ccccc3)CC2)cc1 (stereo not drawn) [FEXOFENADINE]
Bacterial Biotransformation: Compound NOT metabolized

compound: C[C@H]1O[C@@H](O[C@H]2[C@@H](O)C[C@H](O[C@H]3[C@@H](O)C[C@H](O[C@H]4CC[C@@]5(C)[C@H](CC[C@@H]6[C@@H]5C[C@@H](O)[C@]5(C)[C@@H](C7=CC(=O)OC7)CC[C@]65O)C4)O[C@@H]3C)O[C@@H]2C)C[C@H](O)[C@@H]1O
Bacterial Biotransformation: Compound NOT metabolized

compound: CC(N)C12CC3CC(CC(C3)C1)C2 (stereo not drawn)
Bacterial Biotransformation: Compound NOT metabolized

compound: Cc1cc2c(cc1S(N)(=O)=O)S(=O)(=O)CCC2
Bacterial Biotransformation: Compound NOT metabolized

compound: C#C[C@]1(OC(C)=O)CC[C@H]2[C@@H]3CCC4=CC(=O)CC[C@@H]4[C@H]3CC[C@@]21C [NORETHINDRONE ACETATE]
Bacterial Biotransformation: Compound NOT metabolized

compound: CN1[C@@H]2CC[C@H]1C[C@@H](OC(=O)C(CO)c1ccccc1)C2 (stereo partly drawn)
Bacterial Biotransformation: Compound NOT metabolized
